target: T1, human LILRA3 (human, UniProt Q8N6C8 24-439); test: FACS, 293F-hLILRA3 cells
T1 construct: whole, on cells; also called hLILRA3
T1 sequence (Q8N6C8 24-439): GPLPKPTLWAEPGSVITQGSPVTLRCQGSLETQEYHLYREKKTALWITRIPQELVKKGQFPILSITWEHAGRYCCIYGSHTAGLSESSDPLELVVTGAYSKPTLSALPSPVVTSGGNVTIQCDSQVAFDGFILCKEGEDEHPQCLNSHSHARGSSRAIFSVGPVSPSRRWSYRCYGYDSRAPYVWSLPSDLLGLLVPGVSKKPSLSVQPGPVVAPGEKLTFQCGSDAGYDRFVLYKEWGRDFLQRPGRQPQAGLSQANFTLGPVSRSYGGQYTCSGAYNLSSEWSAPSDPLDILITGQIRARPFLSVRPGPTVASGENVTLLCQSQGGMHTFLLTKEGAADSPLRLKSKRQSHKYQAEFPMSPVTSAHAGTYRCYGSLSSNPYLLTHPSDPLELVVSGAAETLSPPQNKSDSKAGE
MFI overview

- binder: "27-D11-C2-A10 (antibody, V domains shown, mouse monoclonal hybridoma antibody) VH: EVQLVESGGGLVQPGGSRKLSCAASGFTFSVFGVHWVRQAPEKGLEWVAYISSGSNTIHYADTVKGRFTISRDIPKNTLFLQMTSLRSEDTAMYYCARSSGTGAMDYWGQGTSVTVSS VL: DIQMTQSTSSLSASLGDRVSISCRASQDISNYLNWYQQKPDGAVKLLIYYTSRLHSGVPSRFSGSGSGTDYSLTISNLDQEDIATYFCQQGNTLPWTFGGGTKLELK"
  MFI (MFI): 17.2
- binder: "36-F4-H1-D9 (antibody, V domains shown, mouse monoclonal hybridoma antibody) VH: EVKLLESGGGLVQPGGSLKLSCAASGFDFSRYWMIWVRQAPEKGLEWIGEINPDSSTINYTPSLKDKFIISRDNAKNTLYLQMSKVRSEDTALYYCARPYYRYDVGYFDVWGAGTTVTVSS VL: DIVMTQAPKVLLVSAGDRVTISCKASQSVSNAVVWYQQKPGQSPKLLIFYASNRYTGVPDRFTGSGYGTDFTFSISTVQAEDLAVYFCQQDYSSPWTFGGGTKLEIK"
  MFI (MFI): 18.6
